Hey, just so you know, these numbers are from patent US20140005163A1.

biological target: PI3K beta (Homo sapiens, UniProt P42338); construct: for the full-length p110-b subunit are generated and fused by overlapping PCR; p85(iSH2) fusion partner (see partner chain) (N); His tag (C); Tn5 (Trichoplusia ni) or TiniPro insect cells; experiment: PI3K beta kinase assay (Kinase-Glo luminescence)
Sequence (P42338 with tags, fused parts or gaps limits assumed): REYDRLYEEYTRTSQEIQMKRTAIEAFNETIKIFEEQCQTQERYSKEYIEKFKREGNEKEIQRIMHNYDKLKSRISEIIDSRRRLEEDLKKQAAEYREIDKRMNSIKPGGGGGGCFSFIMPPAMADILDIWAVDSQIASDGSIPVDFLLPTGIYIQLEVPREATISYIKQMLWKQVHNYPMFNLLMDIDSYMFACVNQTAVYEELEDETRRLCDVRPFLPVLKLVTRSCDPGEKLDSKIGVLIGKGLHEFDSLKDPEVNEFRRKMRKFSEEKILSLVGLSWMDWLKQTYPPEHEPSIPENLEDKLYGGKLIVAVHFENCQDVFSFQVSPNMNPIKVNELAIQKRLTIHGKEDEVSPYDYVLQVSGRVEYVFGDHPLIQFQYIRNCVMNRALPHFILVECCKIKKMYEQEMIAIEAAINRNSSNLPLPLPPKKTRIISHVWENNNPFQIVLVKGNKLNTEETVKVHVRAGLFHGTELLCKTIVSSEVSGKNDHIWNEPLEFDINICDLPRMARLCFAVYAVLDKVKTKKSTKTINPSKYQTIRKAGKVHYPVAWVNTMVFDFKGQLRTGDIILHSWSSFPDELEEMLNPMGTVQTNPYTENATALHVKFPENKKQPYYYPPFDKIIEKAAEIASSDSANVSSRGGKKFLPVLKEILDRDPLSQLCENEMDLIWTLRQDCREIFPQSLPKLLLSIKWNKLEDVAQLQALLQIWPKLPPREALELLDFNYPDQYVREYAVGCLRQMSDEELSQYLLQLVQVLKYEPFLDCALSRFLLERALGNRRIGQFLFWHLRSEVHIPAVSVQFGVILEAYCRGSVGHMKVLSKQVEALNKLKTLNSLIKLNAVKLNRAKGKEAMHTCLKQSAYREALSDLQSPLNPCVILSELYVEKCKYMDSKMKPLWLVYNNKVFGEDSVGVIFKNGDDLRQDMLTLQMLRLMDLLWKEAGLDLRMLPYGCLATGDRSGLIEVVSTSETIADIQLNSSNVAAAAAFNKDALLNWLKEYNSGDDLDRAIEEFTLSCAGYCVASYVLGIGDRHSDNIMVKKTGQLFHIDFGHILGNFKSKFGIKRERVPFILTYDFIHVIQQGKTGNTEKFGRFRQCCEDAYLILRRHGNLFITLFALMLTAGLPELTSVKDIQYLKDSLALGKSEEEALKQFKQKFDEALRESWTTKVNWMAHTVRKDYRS
Please respond with reported IC50 for every item in the list.
Numbers only, in nM.

Example entries and their recorded answers appear below.
CNc1ncc(-c2ccc3ncc4c(c3c2)n(-c2cn(C)nc2C)c(=O)n4C)cc1Cl: 45
CNc1cc(-c2ccc3ncc4c(c3c2)n(-c2cn(C)nc2C)c(=O)n4C)cnc1F: 12
Cc1nn(C)cc1-n1c(=O)n(C)c2cnc3ccc(-c4cncc(C(C)(C)C#N)c4)cc3c21: 23

# per-item lookup of IC50; items listed below
1. CCOc1ccc(-c2ccc3ncc4c(c3c2)n(-c2cn(C)nc2C)c(=O)n4C)cc1OC
2. Cc1nn(C(C)C)cc1-n1c(=O)n(C)c2cnc3ccc(-c4ccc(C(N)=O)nc4)cc3c21

Response:
144
391

###

Please respond with reported pIC50 for every item in the list.
target: mTOR (Homo sapiens, UniProt P42345)
Sequence (P42345 1360-2549 limits assumed): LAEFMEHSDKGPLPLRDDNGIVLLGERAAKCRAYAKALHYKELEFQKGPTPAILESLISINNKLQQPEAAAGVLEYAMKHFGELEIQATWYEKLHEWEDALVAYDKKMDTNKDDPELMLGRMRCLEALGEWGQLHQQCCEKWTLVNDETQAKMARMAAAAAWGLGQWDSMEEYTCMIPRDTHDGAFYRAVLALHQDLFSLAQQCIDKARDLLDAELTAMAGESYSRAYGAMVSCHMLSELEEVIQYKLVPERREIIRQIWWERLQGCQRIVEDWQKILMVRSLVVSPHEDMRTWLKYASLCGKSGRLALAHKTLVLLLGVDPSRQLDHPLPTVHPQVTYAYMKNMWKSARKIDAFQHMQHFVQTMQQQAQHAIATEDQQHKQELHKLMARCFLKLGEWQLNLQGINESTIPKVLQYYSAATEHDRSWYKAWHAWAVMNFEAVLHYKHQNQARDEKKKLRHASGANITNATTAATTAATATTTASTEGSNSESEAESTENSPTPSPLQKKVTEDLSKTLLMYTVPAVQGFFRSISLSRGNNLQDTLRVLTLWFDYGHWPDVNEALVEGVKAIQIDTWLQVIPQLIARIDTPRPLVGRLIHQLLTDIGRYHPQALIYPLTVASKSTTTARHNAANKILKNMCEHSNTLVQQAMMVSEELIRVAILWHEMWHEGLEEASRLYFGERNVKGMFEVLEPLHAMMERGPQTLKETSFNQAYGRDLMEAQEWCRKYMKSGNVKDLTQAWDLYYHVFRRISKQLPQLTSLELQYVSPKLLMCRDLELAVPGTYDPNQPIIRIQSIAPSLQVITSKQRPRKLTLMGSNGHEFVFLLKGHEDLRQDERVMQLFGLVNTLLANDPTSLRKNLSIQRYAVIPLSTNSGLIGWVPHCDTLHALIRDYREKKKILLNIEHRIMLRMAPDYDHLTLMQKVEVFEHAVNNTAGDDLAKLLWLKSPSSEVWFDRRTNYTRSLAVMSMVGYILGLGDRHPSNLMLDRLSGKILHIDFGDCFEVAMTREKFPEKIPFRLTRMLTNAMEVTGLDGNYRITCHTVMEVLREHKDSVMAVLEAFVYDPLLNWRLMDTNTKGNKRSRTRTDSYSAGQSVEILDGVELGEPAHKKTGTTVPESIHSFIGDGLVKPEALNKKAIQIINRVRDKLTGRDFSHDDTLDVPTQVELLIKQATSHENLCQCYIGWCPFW
Give bare numbers, as −log10 of the molar value.

Cc1nn(C)cc1-n1c(=O)n(C)c2cnc3ccc(-c4cnc(N)c(F)c4)cc3c21: 8.22
COc1ccc(-c2ccc3ncc4c(c3c2)n(-c2cn(CCO)nc2C)c(=O)n4C)cn1: 7.68
Cc1nn(C)cc1-n1c(=O)n(C)c2cnc3ccc(-c4cncc(OC(CF)CF)c4)cc3c21: 8.22
Cc1c(-n2c(=O)n(C)c3cnc4ccc(-c5ccc(N(C)C)nc5)cc4c32)cnn1C: 7.00
Cc1nn(C(C)C)cc1-n1c(=O)n(C)c2cnc3ccc(-c4cnc(Cl)c(N)c4)cc3c21: 7.89

# per-item lookup of pIC50; items listed below
1. CCn1cc(-n2c(=O)n(C)c3cnc4ccc(-c5cncc(N)c5)cc4c32)c(C)n1
2. COc1ccc(-c2ccc3ncc4c(c3c2)n(-c2cc(C)nn2C)c(=O)n4C)cc1OC
3. Cc1nn(C)cc1-n1c(=O)n(C)c2cnc3ccc(-c4cncc(N5CCC5)c4)cc3c21

Response:
1: 7.62; 2: 7.06; 3: 7.89

# per-item lookup of pIC50; items listed below
1. CCn1cc(-n2c(=O)n(C)c3cnc4ccc(-c5cnc(N)c(Cl)c5)cc4c32)c(C)n1
2. Cc1nn(CC(=O)N2CCC2)cc1-n1c(=O)n(C)c2cnc3ccc(-c4cnc(N5CCCC5)nc4)cc3c21
3. CNc1ncc(-c2ccc3ncc4c(c3c2)n(-c2c(C)nn(C)c2C)c(=O)n4C)cn1
4. CCOc1ccc(-c2ccc3ncc4c(c3c2)n(-c2cn(CC)nc2C)c(=O)n4C)cc1OC
5. COc1ccc(-c2ccc3ncc4c(c3c2)n(-c2ccnn2C)c(=O)n4C)cn1

Response:
1. 7.92
2. 7.92
3. 6.92
4. 7.59
5. 6.46

###

molecular target: PI3K alpha (Homo sapiens); construct: p85(iSH2) fusion partner (see partner chain) (N); His tag (C); Tn5 (Trichoplusia ni) or TiniPro insect cells; experiment: PI3K alpha kinase assay (Kinase-Glo luminescence)
Sequence (P42336 with tags, fused parts or gaps limits assumed): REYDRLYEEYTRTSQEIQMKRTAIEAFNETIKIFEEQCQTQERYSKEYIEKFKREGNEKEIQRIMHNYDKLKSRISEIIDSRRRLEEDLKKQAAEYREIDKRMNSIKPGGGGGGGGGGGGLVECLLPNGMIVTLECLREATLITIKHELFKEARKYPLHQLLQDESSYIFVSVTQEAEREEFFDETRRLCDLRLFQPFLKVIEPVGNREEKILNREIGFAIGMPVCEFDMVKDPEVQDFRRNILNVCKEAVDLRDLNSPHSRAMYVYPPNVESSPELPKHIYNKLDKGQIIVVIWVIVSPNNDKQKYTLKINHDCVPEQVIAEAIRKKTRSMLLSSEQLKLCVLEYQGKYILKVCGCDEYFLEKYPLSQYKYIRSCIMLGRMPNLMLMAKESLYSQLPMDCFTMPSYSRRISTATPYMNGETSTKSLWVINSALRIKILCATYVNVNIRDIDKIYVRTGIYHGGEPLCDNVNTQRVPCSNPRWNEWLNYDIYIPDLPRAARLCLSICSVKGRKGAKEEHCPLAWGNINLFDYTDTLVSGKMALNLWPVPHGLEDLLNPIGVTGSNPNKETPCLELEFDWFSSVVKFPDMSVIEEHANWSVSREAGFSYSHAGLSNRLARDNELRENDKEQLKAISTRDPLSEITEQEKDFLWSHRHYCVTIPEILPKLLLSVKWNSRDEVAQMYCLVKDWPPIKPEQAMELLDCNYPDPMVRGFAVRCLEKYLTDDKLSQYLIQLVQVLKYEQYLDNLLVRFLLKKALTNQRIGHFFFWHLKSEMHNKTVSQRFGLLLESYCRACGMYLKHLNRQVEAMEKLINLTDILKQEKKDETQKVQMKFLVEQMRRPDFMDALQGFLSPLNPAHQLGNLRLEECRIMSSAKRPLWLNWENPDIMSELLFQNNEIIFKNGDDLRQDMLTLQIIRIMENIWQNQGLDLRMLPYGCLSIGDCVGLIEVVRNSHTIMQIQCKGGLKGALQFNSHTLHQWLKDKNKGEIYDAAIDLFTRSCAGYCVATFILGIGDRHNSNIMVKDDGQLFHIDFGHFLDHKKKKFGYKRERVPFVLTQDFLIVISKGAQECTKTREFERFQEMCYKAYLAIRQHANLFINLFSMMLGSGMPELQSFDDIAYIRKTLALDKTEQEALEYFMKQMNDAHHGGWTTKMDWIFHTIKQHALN
readout_label: IC50 (nM)
One number for each entry, in nM.

COc1ccc(-c2ccc3ncc4c(c3c2)n(-c2cn(C(C)C)nc2C)c(=O)n4C)cn1: 29

Okay, now this compound:
Request: Recorded IC50 for "Cc1nn(C(C)C)cc1-n1c(=O)n(C)c2cnc3ccc(-c4ccc(N)nc4)cc3c21" with PI3K alpha (Homo sapiens), please?
Response: 35

###

biological target: PI3K alpha (Homo sapiens); construct: p85(iSH2) fusion partner (see partner chain) (N); His tag (C); made in house; host or cells: baculovirus; Tn5 (Trichoplusia ni) or TiniPro insect cells; experiment: PI3K alpha kinase assay (Kinase-Glo luminescence); type: biochemical
Please respond with reported IC50 for every item in the list.
Give bare numbers, in nM.

Example entries and their recorded answers appear below.
CCn1cc(-n2c(=O)n(C)c3cnc4ccc(-c5cnc(OC)nc5OC)cc4c32)c(C)n1: 20
Cc1nn(C)cc1-n1c(=O)n(C)c2cnc3ccc(-c4ccc5c(c4)CCN5C)cc3c21: 188
Cc1ncc(-c2ccc3ncc4c(c3c2)n(-c2cn(C)nc2C)c(=O)n4C)cc1N(C)S(C)(=O)=O: 14
Cc1nn(C)cc1-n1c(=O)n(C)c2cnc3ccc(-c4cccc(OC(C)C)c4F)cc3c21: 74

Request: Recorded IC50 for "COc1ccc(-c2ccc3ncc4c(c3c2)n(-c2c(C)nn(C)c2C)c(=O)n4C)cn1" with PI3K alpha (Homo sapiens), please?
Response: 65

###

Please respond with reported solubility for every item in the list.
experiment: Solubility at pH 6.8; type: physicochemical; details: pH 6.8, aqueous buffer, thermodynamic from solid; read-out: solubility
Answers are plain numbers, in µg/mL.

Example entries and their recorded answers appear below.
CCOCc1cc(-c2ccc3ncc4c(c3c2)n(-c2cn(C)nc2C)c(=O)n4C)cnc1N: 33
CCOc1cc(-c2ccc3ncc4c(c3c2)n(-c2cn(CC)nc2C)c(=O)n4C)ccc1OC: 9
COc1ccc(-c2ccc3ncc4c(c3c2)n(-c2cn(CC(=O)N(C)C)nc2C)c(=O)n4C)cn1: 7
Cc1ncc(-c2ccc3ncc4c(c3c2)n(-c2cn(C)nc2C)c(=O)n4C)cc1N: 136
Cc1nn(C)cc1-n1c(=O)n(C)c2cnc3ccc(-c4ccc(OCCO)nc4)cc3c21: 49
Cc1nn(C)cc1-n1c(=O)n(C)c2cnc3ccc(-c4cnc5c(ccn5C)c4)cc3c21: 3
Cc1nn(C)cc1-n1c(=O)n(C)c2cnc3ccc(-c4ccc(CO)nc4)cc3c21: 102
CCNc1cc(-c2ccc3ncc4c(c3c2)n(-c2c(C)nn(CCO)c2C)c(=O)n4C)cnc1C: 445
CCn1c(=O)n(-c2cn(C)nc2C)c2c3cc(-c4cncc(N)c4)ccc3ncc21: 129
CCn1cc(-n2c(=O)n(C)c3cnc4ccc(-c5cnc(F)c(NC)c5)cc4c32)c(C)n1: 5

# per-item lookup of solubility; items listed below
1. CCn1cc(-n2c(=O)n(C)c3cnc4ccc(-c5cnc(COC)c(NC)c5)cc4c32)c(C)n1
2. Cc1ncc(-c2ccc3ncc4c(c3c2)n(-c2cn(C)nc2C)c(=O)n4C)cc1N(C)C
3. Cc1nn(C)cc1-n1c(=O)n(C)c2cnc3ccc(-c4cnc(CO)c(OC(C)C)c4)cc3c21

Response:
1. 237
2. 400
3. 5

###

system: PKB Ser473 phosphorylation in Rat1-myr-HA-p110 alpha cells; assay: Reverse protein array assay, PKB Ser473 phosphorylation in Rat1-myr-p110 alpha cells; assay type: cell-based; conditions: 0.5 h, pAkt Ser473, 30 minutes compound incubation, read-out: p-PKB IC50
pIC50: −log10 of the molar value.
# cutoff 7 applies to pIC50; >= gives Met, < gives Not met

Some solved entries appear below for comparison.
CCNc1cc(-c2ccc3ncc4c(c3c2)n(-c2cn(C)nc2C)c(=O)n4C)cnc1CC: Met
CCn1cc(-n2c(=O)n(C)c3cnc4ccc(-c5cnc(NC)c(Cl)c5)cc4c32)c(C)n1: Met
CNc1ncc(-c2ccc3ncc4c(c3c2)n(-c2cn(C)nc2C)c(=O)n4C)cc1C(F)(F)F: Met

Request: Given the entry "CCNc1cc(-c2ccc3ncc4c(c3c2)n(-c2cn(C)nc2C)c(=O)n4C)cnc1COC" , answer whether its pIC50 meets or surpasses 7.
Response: Met

Request: # repeat for "CNc1ncc(-c2ccc3ncc4c(c3c2)n(-c2cn(C)nc2C)c(=O)n4C)cn1"
Response: Met

Request: # repeat for "Cc1nn(C)cc1-n1c(=O)n(C)c2cnc3ccc(-c4ccc(-n5cccn5)cc4)cc3c21"
Response: Met

Request: # repeat for "CCNc1cc(-c2ccc3ncc4c(c3c2)n(-c2c(C)nn(C)c2C)c(=O)n4C)cnc1Cl"
Response: Met

Request: # repeat for "Cc1nn(C)cc1-n1c(=O)n(C)c2cnc3ccc(-c4cnc(F)c(N(C)C)c4)cc3c21"
Response: Met

Request: # repeat for "CCNc1cc(-c2ccc3ncc4c(c3c2)n(-c2c(C)nn(CC(=O)N(C)C)c2C)c(=O)n4C)cnc1C"
Response: Not met

Request: # repeat for "CCOc1ccc(-c2ccc3ncc4c(c3c2)n(-c2ccnn2CC)c(=O)n4C)cn1"
Response: Not met

###

Please respond with reported solubility for every item in the list.
assay: Solubility at pH 6.8; type: physicochemical; conditions: pH 6.8, aqueous buffer, thermodynamic from solid; read-out: solubility
One number for each entry, in µg/mL.

CCn1cc(-n2c(=O)n(C)c3cnc4ccc(-c5ccc(OC)c(OC)c5)cc4c32)c(C)n1: 65

Okay, now this compound:
Request: Value lookup for solubility; key = "Cc1nn(C)cc1-n1c(=O)n(C)c2cnc3ccc(-c4cncc(N(C)S(C)(=O)=O)c4)cc3c21"
Response: 47
